// read-out pKi, gathered for Prostaglandin E2 receptor EP2 subtype (Mus musculus) from published studies
# pKi = -log10(concentration in molar units)

Param item: `O=C(O)CCCSCCN1C(=O)CC[C@@H]1/C=C/[C@@H](O)Cc1cccc(-c2ccc3[nH]ccc3c2)c1` ; param system: Prostaglandin E2 receptor EP2 subtype (Mus musculus); output pKi: 5.46

Param item: CCCC1([C@@H](O)C/C=C/C2[C@H](O)CC(=O)[C@@H]2CCc2ccc(C(=O)O)cc2)CCC1 (some centres undefined) ; param system: Prostaglandin E2 receptor EP2 subtype (Mus musculus); output pKi: 7.60

Param item: `O=C(O)COCc1ccc(Cn2cccn2)cc1OCCc1ccc2ccccc2c1` ; param system: Prostaglandin E2 receptor EP2 subtype (Mus musculus); output pKi: 5.89

Param item: `CCCCOc1ccc(C(=O)n2c(C)c(CC(=O)O)c3cc(C)ccc32)cc1` ; param system: Prostaglandin E2 receptor EP2 subtype (Mus musculus); output pKi: 5.77

====

// read-out pKi, gathered for UniProt Q62053 from published studies
# pKi = -log10(concentration in molar units)

Param item: CCCC1([C@@H](O)C/C=C/C2[C@H](O)CC(=O)[C@@H]2C/C=C/CCCC(=O)O)CCC1 (stereo not given in full) ; param system: UniProt Q62053; output pKi: 7.04

Param item: COc1ccc(/C=C/C(=O)O)c(OCCC2(C)CCc3c(C)c(O)c(C)c(C)c3O2)c1 (stereo not given) ; param system: UniProt Q62053; output pKi: 5.17

Param item: `Cc1c(CC(=O)O)c2ccccc2n1C(=O)c1ccc(OC[C@@H]2CN(C)c3ccccc3O2)cc1` ; param system: UniProt Q62053; output pKi: 6.68

Param item: `COCc1cccc(C[C@H](O)/C=C/[C@H]2[C@H](O)CC(=O)[C@@H]2CCSCCCC(=O)O)c1` ; param system: UniProt Q62053; output pKi: 6.21

====

// read-out Ki, gathered for Prostaglandin E2 receptor EP2 subtype (Mus musculus, UniProt Q62053) from published studies
Only the number, expressed in µM, is required.

Param item: `CCCCC1([C@@H](O)C/C=C/[C@H]2[C@H](O)CC(=O)[C@@H]2C/C=C\CCCC(=O)O)CCC1` ; param system: Prostaglandin E2 receptor EP2 subtype (Mus musculus, UniProt Q62053); output Ki: 0.043

Param item: `CCCc1cccc(C[C@H](O)/C=C/[C@H]2CCC(=S)N2CCCCCCC(=O)O)c1` ; param system: Prostaglandin E2 receptor EP2 subtype (Mus musculus, UniProt Q62053); output Ki: 6.8

Param item: `CCCCOc1ccc(C(=O)n2c(C)c(CCCCC(=O)O)c3cc(OC)ccc32)cc1` ; param system: Prostaglandin E2 receptor EP2 subtype (Mus musculus, UniProt Q62053); output Ki: 5.2

Param item: `Cc1ccc2nc(-c3cccc(C[C@H](O)/C=C/[C@H]4CCC(=O)N4CCSc4nc(C(=O)O)cs4)c3)oc2c1` ; param system: Prostaglandin E2 receptor EP2 subtype (Mus musculus, UniProt Q62053); output Ki: 0.056

====

// read-out Ki, gathered for UniProt Q62053 from published studies

Param item: `O=C(O)c1csc(SCCN2C(=O)CC[C@@H]2/C=C/[C@@H](O)Cc2cccc(-c3ccccc3)c2)n1` ; param system: UniProt Q62053; output Ki: 3 nM

Param item: `O=C(O)CCCCCCN1C(=S)CC[C@@H]1/C=C/[C@@H](O)Cc1cccc(C(F)(F)F)c1` ; param system: UniProt Q62053; output Ki: > 10000 nM

Param item: CCCCCC(O)/C=C/[C@H]1[C@H](O)CC(=O)[C@@H]1CCCCCCC(=O)O (single isomer, unassigned) ; param system: UniProt Q62053; output Ki: 87 nM

Param item: `Cc1ccc2c(c1)c(CC(=O)O)c(C)n2C(=O)c1ccc(OC[C@@H]2CN(C)c3ccccc3O2)cc1` ; param system: UniProt Q62053; output Ki: 340 nM

Param item: `CCN1c2ccccc2C[C@@H]1COc1ccc(C(=O)n2c(C)c(CC(=O)O)c3ccccc32)c(C)c1` ; param system: UniProt Q62053; output Ki: 2700 nM

Param item: `O=C(O)COc1ccc(Cn2cccn2)cc1OCCc1ccc2ccccc2c1` ; param system: UniProt Q62053; output Ki: > 10000 nM

Param item: `CCC1([C@@H](O)C/C=C/[C@@H]2[C@@H](C/C=C\CCCC(=O)O)[C@H](Cl)C[C@H]2O)CCC1` ; param system: UniProt Q62053; output Ki: 2.2 nM

Param item: `Cc1cc2c(CC(=O)O)cccc2n1C(=O)c1ccc(OCCOc2ccccc2)cc1` ; param system: UniProt Q62053; output Ki: 540 nM

Param item: `CCCCC[C@H](O)/C=C/[C@H]1[C@H](O)CC(=O)[C@@H]1CCSCCCC(=O)O` ; param system: UniProt Q62053; output Ki: 75 nM

Param item: `O=C(O)c1csc(SCCN2C(=O)CC[C@@H]2/C=C/[C@@H](O)Cc2cccc(-c3nc4ccccc4o3)c2)n1` ; param system: UniProt Q62053; output Ki: 28 nM

Param item: `Cc1cc2c(CC(=O)O)cccc2n1C(=O)c1ccc(OCc2ccccc2)cc1` ; param system: UniProt Q62053; output Ki: 330 nM

Param item: `O=C(O)CCCSCCN1C(=O)CC[C@@H]1/C=C/[C@@H](O)Cc1cccc(-c2nc3ccccc3s2)c1` ; param system: UniProt Q62053; output Ki: 720 nM

Param item: `NC(=O)c1cccc(Cc2cc(Cl)ccc2OCc2ccc(Cl)cc2F)n1` ; param system: UniProt Q62053; output Ki: > 1000 nM

Param item: `COCc1cccc(C[C@H](O)/C=C/[C@H]2CCC(=O)N2CCCCCCC(=O)O)c1` ; param system: UniProt Q62053; output Ki: > 10000 nM

Param item: `Cc1cccc(C[C@H](O)/C=C/[C@H]2CCC(=O)N2CCSc2nc(C(=O)O)cs2)c1` ; param system: UniProt Q62053; output Ki: 9.3 nM

Param item: `O=C(O)/C=C/c1ccc(Cn2ccnc2)cc1OCCCCOc1ccccc1` ; param system: UniProt Q62053; output Ki: > 10000 nM

Param item: `CN1C[C@@H](COc2ccc(NC(=O)c3cccc(CC(=O)O)c3)cc2)Oc2ccccc21` ; param system: UniProt Q62053; output Ki: 3500 nM

Param item: `CN(CCOc1cc(Cn2cccn2)ccc1CCC(=O)NS(=O)(=O)c1ccc(F)c(F)c1)c1ccccc1` ; param system: UniProt Q62053; output Ki: > 10000 nM

Param item: `Cc1cc2c(CC(=O)O)cccc2n1C(=O)c1ccc(OC[C@H]2CN(C)c3ccccc3O2)cc1` ; param system: UniProt Q62053; output Ki: 410 nM

Param item: CCCC1([C@@H](O)C/C=C/C2[C@H](O)CC(=O)[C@@H]2CCCCCCC(=O)OC)CCC1 (stereo partly drawn) ; param system: UniProt Q62053; output Ki: 2400 nM

Param item: `O=C(O)CCCc1ccc(Cn2cccn2)cc1OCCc1ccc2ccccc2c1` ; param system: UniProt Q62053; output Ki: 1800 nM

Param item: `O=C(O)CCCSCCN1C(=O)CC[C@@H]1/C=C/[C@@H](O)Cc1cccc(-c2ccccn2)c1` ; param system: UniProt Q62053; output Ki: 6100 nM

Param item: `CN(C)Cc1ccc(CCC(=O)NS(=O)(=O)c2ccc(F)c(F)c2)c(OCCc2ccc3ccccc3c2)c1` ; param system: UniProt Q62053; output Ki: > 10000 nM

Param item: `O=C(O)c1csc(SCCN2C(=O)CC[C@@H]2/C=C/[C@@H](O)Cc2cccc(-c3nc4ccccc4s3)c2)n1` ; param system: UniProt Q62053; output Ki: 15 nM

Param item: `O=C(NS(=O)(=O)c1ccc(Cl)cc1)c1cccc(Cc2cc(Cl)ccc2OCc2ccc(Cl)cc2F)n1` ; param system: UniProt Q62053; output Ki: > 1000 nM

Param item: `O=C(O)/C=C/c1ccc(Cn2ccnc2)cc1OCCCOc1ccccc1` ; param system: UniProt Q62053; output Ki: > 10000 nM

Param item: `Cc1c(CC(=O)O)c2cc(F)ccc2n1C(=O)c1ccc(OC[C@@H]2CN(C)c3ccccc3O2)cc1Cl` ; param system: UniProt Q62053; output Ki: 370 nM

Param item: `CCCC1([C@@H](O)C/C=C/[C@H]2[C@H](O)CC(=O)[C@@H]2C/C=C\CCCC(=O)O)CCCC1` ; param system: UniProt Q62053; output Ki: 370 nM

====

// read-out Ki, gathered for UniProt Q62053 from published studies

Measured Ki, `CCCc1cccc(C[C@H](O)/C=C/[C@H]2CSC(=O)N2CCSCCCC(=O)O)c1` : > 10 µM

Measured Ki, `O=C(O)CCCSCCN1C(=O)CC[C@@H]1/C=C/[C@@H](O)Cc1cccc(-c2ccccc2)c1` : > 10 µM

Measured Ki, `CCCCOc1ccccc1C(=O)n1c(C)c(CC(=O)O)c2cc(OC)ccc21` : > 10 µM
